- Tested on: Blood
- Measurement protocol: Inhibition of ROS production in human whole blood after 30 mins by luminol-based chemiluminescence assay
- Assay type: functional, tissue-based
- Measurement conditions: 0.5 h
Form field: IC50 (one value per entry).
Please respond with the number in µg/mL and leave the unit unwritten.

In [3]: df
Out[3]:
                           compound  property  recorded_number
0  Cc1ccc(/C=C/C(=O)c2ccc(N)cc2)cc1      IC50             12.4

Give the value of IC50 reported for the following: O=C(/C=C/c1ccccc1)c1cccc(O)c1 4.8

Give the value of IC50 reported for the following: Nc1ccc(C(=O)/C=C/c2cccc(Cl)c2)cc1 24.4

Give the value of IC50 reported for the following: CC1CC(=O)Nc2cc(N)ccc2N1 (stereo unspecified) 4.5

Give the value of IC50 reported for the following: Cc1ccc(/C=C/C(=O)c2ccccc2)cc1 31

Give the value of IC50 reported for the following: CC1(C)CC(=O)Nc2cc([N+](=O)[O-])ccc2N1 12.4

Entry source: ChEMBL document CHEMBL3046838
